Data credit: ChEMBL document CHEMBL1129987

Experiment: Apparent volume of distribution was obtained after intravenous administration of 2.8 mg/kg of drug in male Dawley rats
Type: ADME, organism-based
Set-up: dose 2.8 mg/kg, route intravenous
Details: male, Sprague-Dawley, rat, in vivo, read-out: Vss
assay.endpoint: Vd

For this compound ( `O=c1c2c(oc(O)c1[C@H](c1cccc(NS(=O)(=O)c3ccc(F)cc3)c1)C1CC1)CCCCCC2` ), measured Vd is 0.13 L/kg

###

Molecular target: Human immunodeficiency virus type 1 protease (Human immunodeficiency virus 1, UniProt Q72874)
assay.endpoint: Ki

// below: answered compounds
Cn1cnc(S(=O)(=O)Nc2cccc(C(c3c(O)c4c(oc3=O)CCCCCC4)C3CC3)c2)c1 (centres undefined): 1.6 nM
CC(C)S(=O)(=O)Nc1cccc(C(c2c(O)c3c(oc2=O)CCCCCC3)C2CC2)c1 (centres undefined): 33 nM
Cn1cnc(S(=O)(=O)Nc2cccc([C@H](c3c(O)c4c(oc3=O)CCCCCC4)C3CC3)c2)c1: 0.08 nM

For this compound ( O=c1c2c(oc(O)c1C(c1cccc(NS(=O)(=O)c3ccc(F)cc3)c1)C1CC1)CCCCCC2 (centres undefined) ), measured Ki is 3.1 nM

For this compound ( O=c1c2c(oc(O)c1C(c1cccc(NS(=O)(=O)c3ccc([N+](=O)[O-])cc3)c1)C1CC1)CCCCCC2 (centres undefined) ), measured Ki is 2.7 nM

For this compound ( CC(C)C(c1cccc(NS(=O)(=O)c2ccc(C#N)cc2)c1)c1c(O)c2c(oc1=O)CCCCCC2 (centres undefined) ), measured Ki is 5.9 nM

For this compound ( CC(C)CC(c1cccc(NS(=O)(=O)c2cccnc2)c1)c1c(O)c2c(oc1=O)CCCCCC2 (centres undefined) ), measured Ki is 9.3 nM

For this compound ( O=c1c2c(oc(O)c1C(c1cccc(NS(=O)(=O)c3ncccn3)c1)C1CC1)CCCCCC2 (centres undefined) ), measured Ki is 0.8 nM

For this compound ( O=c1c2c(oc(O)c1C(c1ccccc1)C1CC1)CCCCCC2 (centres undefined) ), measured Ki is 15 nM
